- system.name: Kras and SOS1 (biotin-tagged human Kras loaded with GDP, His-tagged human SOS1) (Homo sapiens, UniProt P01116, G12D)
- Construct: made in house; host or cells: E. coli (stated for Kras only)
- Sequence (P01116 1-188 isoform P01116-2 G12D): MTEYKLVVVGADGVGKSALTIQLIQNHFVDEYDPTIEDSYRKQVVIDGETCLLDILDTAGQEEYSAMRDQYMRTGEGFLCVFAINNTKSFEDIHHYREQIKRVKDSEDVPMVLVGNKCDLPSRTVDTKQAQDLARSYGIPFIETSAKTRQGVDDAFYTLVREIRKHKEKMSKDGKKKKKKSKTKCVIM
- protocol.text: Protein-protein interaction inhibition between Kras and SOS1 (KrasGl2D-SOS PPI) using AlphaScreen
- Assay type: binding
- protocol.conditions: AlphaScreen; biotin-tagged human Kras loaded with GDP, His-tagged human SOS1; read-out: KRAS G12D-SOS PPI IC50
Starred links: 1 amine or outer side, 2 acyl side, 3 side chain; linkers in the order of their positions; H or OH if unused. Positions of bridges follow the written chain, without caps; N, C: chain ends. Non-standard residues stand in square brackets, D forms with d. Residues, ends and D or L forms follow the SMILES beside them. *: point of attachment. hPhe(3-Cl-4-CF3) = N[C@@H](CCc1ccc(C(F)(F)F)c(Cl)c1)C(=O)O; NMePhe(4-F) = CN[C@@H](Cc1ccc(F)cc1)C(=O)O; NMedβ3hAla = C[C@H](CC(=O)[*:2])N(C)[*:1]; NMeGly(cPent) = CN[C@H](C(=O)O)C1CCCC1; Pro(4,4-F2) = O=C(O)[C@@H]1CC(F)(F)CN1; NMeCha = CN[C@@H](CC1CCCCC1)C(=O)O; NMeD = CN[C@@H](CC(=O)O)C(=O)O; NMeL = CN[C@@H](CC(C)C)C(=O)O; NMeV = CN[C@H](C(=O)O)C(C)C; NMeA = CN[C@@H](C)C(=O)O; Piperidide = C1CCN(*)CC1; Ac5c = NC1(C(=O)O)CCCC1; Ac4c = NC1(C(=O)O)CCC1; Sar = CNCC(=O)O
value.type: IC50 (nM)
Respond numerically; units are nM and should not be typed.

Enquiry: # lookup: IC50 of CC[C@H](C)[C@@H]1NC(=O)[C@H](C)N(C)C(=O)C[C@@H](C(=O)N2CCCCC2)N(C)C(=O)[C@H](C(C)C)N(C)C(=O)C2(CCCC2)NC(=O)[C@H](Cc2ccc(F)cc2)N(C)C(=O)[C@H](CCc2ccc(C(F)(F)F)c(Cl)c2)NC(=O)CN(C)C(=O)[C@H](CC2CCCCC2)N(C)C(=O)CN(C)C(=O)CN(C)C1=O [Compound 821] ([NMeA]I[Sar][Sar][NMeCha][Sar][hPhe(3-Cl-4-CF3)][NMePhe(4-F)][Ac5c][NMeV][NMeD]-Piperidide; lactam N-11)
Return: 12

Enquiry: Moving on to the next compound: CC[C@H](C)[C@@H]1NC(=O)[C@H](CC(C)C)N(C)C(=O)C[C@@H](C)N(C)C(=O)[C@H](C2CCCC2)N(C)C(=O)C2(CCC2)NC(=O)[C@@H]2CC(F)(F)CN2C(=O)[C@H](CCc2ccc(C(F)(F)F)c(Cl)c2)NC(=O)CN(C)C(=O)[C@H](CC2CCCCC2)N(C)C(=O)CN(C)C(=O)CN(C)C1=O [Compound 962] (cyclo([Ac4c][NMeGly(cPent)][NMedβ3hAla][NMeL]I[Sar][Sar][NMeCha][Sar][hPhe(3-Cl-4-CF3)][Pro(4,4-F2)]))
Return: 7.8
